Experiment: ATG_EGR_CIS: Attagene CIS-FACTORIAL HepG2 Assay for human Early Growth Response 1 (EGR1) (AID 2282938)
Settings: HepG2 Attagene CIS-FACTORIAL EGR reporter mRNA; actives raise or lower the signal
The source made the active and inactive calls. Rule for the calls: active = hit-call score of the fitted dose curve at least 0.9, where 1 is the maximum; inactive = score below 0.9.
Return exactly one item of active, inactive

Past entries and their recorded results:
CN1CCC[C@H]1c1cccnc1	inactive
CCOC(=O)CC(O)(CC(=O)OCC)C(=O)OCC	inactive

Shift focus to the following entry.
Please indicate how the test categorized `CC#C[C@]1(O)CC[C@H]2[C@@H]3CCC4=CC(=O)CCC4=C3[C@@H](c3ccc(N(C)C)cc3)C[C@@]21C` .
active

* * *

Target: human Beta-secretase (BACE), BACE1 (gene 23621) (UniProt P56817)
Sequence (P56817 whole entry, looked up): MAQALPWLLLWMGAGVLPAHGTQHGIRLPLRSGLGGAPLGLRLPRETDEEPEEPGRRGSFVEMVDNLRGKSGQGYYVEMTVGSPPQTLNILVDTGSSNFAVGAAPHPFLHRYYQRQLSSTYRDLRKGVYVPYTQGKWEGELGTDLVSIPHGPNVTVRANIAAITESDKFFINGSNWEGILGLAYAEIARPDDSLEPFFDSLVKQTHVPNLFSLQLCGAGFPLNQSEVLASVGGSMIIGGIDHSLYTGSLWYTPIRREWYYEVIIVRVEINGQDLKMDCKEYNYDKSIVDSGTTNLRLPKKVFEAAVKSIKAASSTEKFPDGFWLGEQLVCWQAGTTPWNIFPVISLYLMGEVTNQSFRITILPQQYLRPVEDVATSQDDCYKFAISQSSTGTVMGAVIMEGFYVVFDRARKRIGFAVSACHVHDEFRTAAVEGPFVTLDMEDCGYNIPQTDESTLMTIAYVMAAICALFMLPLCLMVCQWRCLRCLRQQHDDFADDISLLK
Assay: NVS_ENZ_hBACE: NovaScreen (NVS) Enzymatic Assay for human Beta-secretase (BACE) (AID 2283140);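 note: hits are inhibitors that reduce fluorescent substrate signal versus DMSO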
Records with an inconclusive call do not appear. Calls of active or inactive are those of the source. Rule for the calls: active = hit-call score of the fitted dose curve at least 0.9, where 1 is the maximum; inconclusive = response in the unintended direction; inactive = score below 0.9.
Tick one outcome: 1 (active), -1 (inactive)

Look over these answered cases.
CCCCCCCCCCCCc1ccccc1S(=O)(=O)O	1
Nc1cccc2c(N)cccc12	1
c1ccc2c(c1)Cc1ccccc1-2	-1
CC(C)(C)c1ccc(O)c(C(C)(C)C)c1	-1

Attention now shifts to the item below.
Given `CCCCCCCCCCCCCC[N+](C)(C)C` , state the outcome it received in this test.
1

* * *

Read-out: Low-density lipoprotein receptor (LDLR), LDLR (gene 3949)
Assay: BSK_CASM3C_LDLR: BioMAP Diversity Plus: CASM3C Assay for Low-density lipoprotein receptor (LDLR) Biomarker Activity (AID 2283045);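 note: LDLR protein level on the cell surface quantified by ELISA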
Settings: primary human coronary artery smooth muscle cells; actives raise or lower the signal
Calls of active or inactive are those of the source. The calls were made as follows: active = hit-call score of the fitted dose curve at least 0.9, where 1 is the maximum; inactive = score below 0.9.
Use one of these outcomes when replying: 1.0 for active, 0.0 for inactive

OC1CCCCC1	0.0
C[C@@H]1C[C@H]2[C@@H]3CCC4=CC(=O)C=C[C@]4(C)[C@@]3(F)[C@@H](O)C[C@]2(C)[C@@]1(O)C(=O)COP(=O)(O)O	0.0
CCCCCCC(=O)O	0.0
COC(=O)CCCCC(=O)OC	0.0
CCCCCCCCOC(=O)CCCCCCCCC(=O)OCCCCCCCC	0.0
CCN(CC)CCNc1ccc(CNC=O)c2sc3ccc(OC)cc3c(=O)c12	0.0
CCOC(=O)CC(O)(CC(=O)OCC)C(=O)OCC	0.0
NC(=O)N1C(=O)C(C(=O)c2cc(Cl)cs2)c2cc(F)c(Cl)cc21 (stereo not drawn)	0.0
CCC(C)(C)C1CCC(O)CC1 (stereo not drawn)	0.0
ClC1=C(Cl)C(Cl)(Cl)C(Cl)=C1Cl	1.0

Can you look up the reported call for `CC(=O)NC1(c2cccc(F)c2)CCN(CC[C@@]2(c3ccc(Cl)c(Cl)c3)CN(c3ccccc3)C(=O)CO2)CC1` for me?
1.0

Hi, do you know how `CC(C)(C)c1cccc(C(C)(C)C)c1O` came out in this test?
0.0

How was CCCCC(CC)COC(=O)CCCCC(=O)OCC(CC)CCCC (stereo not drawn) classified in this test?
0.0

In this assay, the call recorded for `O=c1c(-c2ccc(O)cc2)coc2cc(O)ccc12` was what?
0.0

State the result this test recorded for `CN(C)C=O` .
0.0

What call does the record list for `FC(F)(I)C(F)(F)C(F)(F)C(F)(F)C(F)(F)C(F)(F)I` ?
1.0

Could you please tell me the result logged for `NC(=O)N(O)[C@@H]1C=C[C@H](Oc2cccc(Oc3ccc(F)cc3)c2)C1` in this assay?
0.0

What call does the record list for `Oc1cccc(O)c1` ?
0.0

Test call, this molecule: `CN1CCC[C@H]1c1cccnc1`
0.0

Kindly provide the recorded test outcome for the following molecule: `CCCCCCCC(=O)O`
0.0

Tell me the assay call for `Cc1cc(CCN2CCN(c3nsc4ccccc34)CC2)cc2c1NC(=O)CC2(C)C` please.
1.0

Dear all, I need the recorded test outcome for OC1CCC(C2CCCCC2)CC1 (stereo not drawn) , thank you.
0.0

Field: outcome | Entry: CCCCC(CC)COC(=O)CCCCC(=O)OCc1ccccc1 (stereo not drawn)
0.0

What was the test verdict on `Nc1cccc2c(N)cccc12` ?
0.0

Recorded call for `O=C(O)c1ccccc1C(c1ccc(O)cc1)c1ccc(O)cc1` ?
0.0

* * *

Assay: BSK_SAg_PBMCCytotoxicity: PBMC Cytotoxicity Assessment in the BioMAP Diversity Plus: SAg Assay (AID 2283093);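 note: PBMC viability measured as Alamar Blue reduction fluorescence at 546/580 nm; fitted both ways against DMSO so a hit may be loss or gain of signal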;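 for AC50: PBMC superantigen activated with SEB plus TSST-1 one hour after compound addition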
Conditions: primary human HUVEC with PBMC
The source made the active and inactive calls. Rule for the calls: active = hit-call score of the fitted dose curve at least 0.9, where 1 is the maximum; inactive = score below 0.9.
Property: AC50

Consider the reported AC50 for these compounds:
CCCCCCCCCCCCc1ccccc1S(=O)(=O)O	inactive
c1ccc2c(c1)Cc1ccccc1-2	inactive
CCC(=C(c1ccc(O)cc1)c1ccc(OCCN(C)C)cc1)c1ccccc1	7.32 µM (active)
O=[N+]([O-])c1ccc(O)cc1	inactive
CC(C)CCCCCCOC(=O)CCCCC(=O)OCCCCCCC(C)C	inactive
CC#C[C@]1(O)CC[C@H]2[C@@H]3CCC4=CC(=O)CCC4=C3[C@@H](c3ccc(N(C)C)cc3)C[C@@]21C	inactive

Here are 5 compounds. What values of AC50 were reported for them?
1. N#C[C@@H]1CC(F)(F)CN1C(=O)CNC1CC2CCC(C1)N2c1ncccn1 (some centres undefined)
2. O=C(O)Cc1cc(I)c(Oc2cc(I)c(O)c(I)c2)c(I)c1
3. NC(=O)N1C(=O)C(C(=O)c2cc(Cl)cs2)c2cc(F)c(Cl)cc21 (centres undefined)
4. CCCCCCCCCCCCCC[N+](C)(C)C
5. COC(=O)CCCCC(=O)OC

8.08 µM (active)
inactive
inactive
4.69 µM (active)
inactive

Below are some compounds; for each one, tell me its AC50.
1. COCC(C)OCC(C)O (centres undefined)
2. CCCCCCCC(=O)O
3. O=C(O)c1ccccc1C(c1ccc(O)cc1)c1ccc(O)cc1

1: inactive; 2: inactive; 3: inactive

* * *

Test: BSK_hDFCGF_Proliferation: Cell Proliferation Assessment in the BioMAP Diversity Plus: hDFCGF Assay (AID 2283059);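 note: curves fitted for both rise and fall of signal versus DMSO baseline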
Conditions: primary human foreskin fibroblasts
The source made the active and inactive calls. The calls were made as follows: active = hit-call score of the fitted dose curve at least 0.9, where 1 is the maximum; inactive = score below 0.9.
Mark one answer only. Choices: TRUE = active, FALSE = inactive

The following molecules have reported results that may help.
CCCCCCCCCCCCCCCS(=O)(=O)Oc1ccccc1	FALSE
CCCCCCCCOC(=O)CCCCCCCCC(=O)OCCCCCCCC	FALSE
C#C[C@]1(O)CC[C@H]2[C@@H]3CCC4=CC(=O)CC[C@@H]4[C@H]3CC[C@@]21C	FALSE
CCCOC(=O)c1ccc(O)cc1	FALSE
CCCCC(CC)COC(=O)CCCCC(=O)OCc1ccccc1 (stereo unspecified)	FALSE

Recorded test outcome, item `CCC(=C(c1ccc(O)cc1)c1ccc(OCCN(C)C)cc1)c1ccccc1`
TRUE

* * *

Assay: ACEA_AR_antagonist_AUC_viability: ACEA Biosciences xCELLigence Real-Time Cell Analysis on Androgen Receptor Antagonism for Viability (AID 2283776);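 note: 22Rv1 human prostate cancer cells growing on impedance electrode plates; area under impedance growth curve at 80 h after dosing as viability; hits lower the growth signal relative to DMSO meaning cytotoxicity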
Results filed as inconclusive are left out. Active and inactive are the calls of the source. The calls were made as follows: active = hit-call score of the fitted dose curve at least 0.9, where 1 is the maximum; inconclusive = response in the unintended direction; inactive = score below 0.9.
Lab note: assign the record to one of active, inactive

Would you please look over these solved cases?
c1ccc2c(c1)ccc1ccccc12	active
CCCOC(=O)c1ccc(O)cc1	inactive
CCCCCCCCC(=O)O	inactive

Please indicate how the test categorized `CC#C[C@]1(O)CC[C@H]2[C@@H]3CCC4=CC(=O)CCC4=C3[C@@H](c3ccc(N(C)C)cc3)C[C@@]21C` .
active

Outcome logged for `CC(C)CCCCCCOC(=O)CCCCC(=O)OCCCCCCC(C)C` in this assay:
inactive

Please let me know the test result on file for `O=C(O)Cc1cc(I)c(Oc2cc(I)c(O)c(I)c2)c(I)c1` .
active

Hi team, can someone confirm the assay call for `CCN(CC)CCNc1ccc(CNC=O)c2sc3ccc(OC)cc3c(=O)c12` ?
active

Hey, what did the test say about `NC(=O)N(O)[C@@H]1C=C[C@H](Oc2cccc(Oc3ccc(F)cc3)c2)C1` ?
active

What call does the record list for CCCCC(CC)COC(=O)CCCCC(=O)OCc1ccccc1 (configuration not stated) ?
inactive

Hey, what did the test say about CC(O)CO (configuration not stated) ?
active

Query: recorded result category for `CN1CCC[C@H]1c1cccnc1` in this test
inactive

What classification did `O=C(O)c1ccccc1C(c1ccc(O)cc1)c1ccc(O)cc1` end up with in this test?
inactive

* * *

Molecular target: rat Opioid Receptor, Non-selective Sodium (Na+) Binding, Oprm1 (gene 25601)
Assay: NVS_GPCR_rOpiate_NonSelectiveNa: NovaScreen (NVS) G Protein-Coupled Receptor Assay for rat Opioid Receptor, Non-selective Sodium (Na+) Binding (AID 2283311)
Records with an inconclusive call do not appear. Calls of active or inactive are those of the source. The calls were made as follows: active = hit-call score of the fitted dose curve at least 0.9, where 1 is the maximum; inconclusive = response in the unintended direction; inactive = score below 0.9.
Hello, when you answer, please use one of the following outcomes: true (1) = active, false (0) = inactive

Field: example entries. Status: answers known.
CC(=O)NC1(c2cccc(F)c2)CCN(CC[C@@]2(c3ccc(Cl)c(Cl)c3)CN(c3ccccc3)C(=O)CO2)CC1	true (1)
CCCCCCCC(=O)O	false (0)
CC[C@H](c1ccc(O)cc1)[C@@H](CC)c1ccc(O)cc1	true (1)

Kindly consider the entry below.
Test call for this molecule, please: `O=C(O)Cc1cc(I)c(Oc2cc(I)c(O)c(I)c2)c(I)c1`
false (0)
